Target: catalytic subunit of human protein kinase CK2 (hCK2α) (Homo sapiens)
Sequence (P68400 whole entry): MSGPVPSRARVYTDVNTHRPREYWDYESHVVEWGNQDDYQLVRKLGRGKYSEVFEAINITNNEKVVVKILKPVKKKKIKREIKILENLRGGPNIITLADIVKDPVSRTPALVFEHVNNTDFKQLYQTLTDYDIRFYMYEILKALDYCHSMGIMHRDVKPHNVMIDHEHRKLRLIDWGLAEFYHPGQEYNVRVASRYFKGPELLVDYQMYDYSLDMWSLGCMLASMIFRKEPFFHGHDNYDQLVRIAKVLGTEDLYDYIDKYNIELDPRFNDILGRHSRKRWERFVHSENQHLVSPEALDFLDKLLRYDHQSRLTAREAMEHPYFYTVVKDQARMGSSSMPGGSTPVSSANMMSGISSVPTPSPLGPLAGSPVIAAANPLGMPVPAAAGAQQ
Protocol text: Microscale thermophoresis (MST) pseudo-titration
Format: binding
Design: made in house; host or cells: Escherichia coli BL21(DE3), plasmid pET28
Run conditions: second, weak site (solvent exposed region at alpha/beta interface), read-out: Kd2
Measured attribute: Kd

Compound	Measurement
Brc1c(I)c(I)c(Br)c2[nH]nnc12	43 nM
Brc1cc2nn[nH]c2cc1Br [HBBH, 5,6-dibromo-1H-benzotriazole, reference compound]	327 nM
Ic1cc2nn[nH]c2cc1I	374 nM

----------
Target: catalytic subunit of human protein kinase CK2 (hCK2α) (Homo sapiens)
Protocol text: Microscale thermophoresis (MST) pseudo-titration
Format: binding
Parameters: made in house; host or cells: Escherichia coli BL21(DE3), plasmid pET28
Run conditions: strongly binding site (ATP-binding site), pH 8, 0.5 M NaCl, 1% DMSO, read-out: Kd1
Reported values of Kd for individual entries

Compound	Target	Kd / nM
Ic1cc2nn[nH]c2cc1I	catalytic subunit of human protein kinase CK2 (hCK2α) (Homo sapiens)	15
Brc1cc2nn[nH]c2cc1Br [HBBH, 5,6-dibromo-1H-benzotriazole, reference compound]	catalytic subunit of human protein kinase CK2 (hCK2α) (Homo sapiens)	29
Brc1c(I)c(I)c(Br)c2[nH]nnc12	catalytic subunit of human protein kinase CK2 (hCK2α) (Homo sapiens)	3

Data origin, for the record: paper PMC8654832
